Overview of recorded Ratio IC50 to 056-53.H4E IC50 for various binders
Biological target: T1, recombinant human IL-23R/Fc chimera (R&D Systems) (human, UniProt Q5VWK5 24-353)
T1 construct: bought; also called human IL-23R/Fc fusion protein; rhIL23RFc
T1 sequence (looked up): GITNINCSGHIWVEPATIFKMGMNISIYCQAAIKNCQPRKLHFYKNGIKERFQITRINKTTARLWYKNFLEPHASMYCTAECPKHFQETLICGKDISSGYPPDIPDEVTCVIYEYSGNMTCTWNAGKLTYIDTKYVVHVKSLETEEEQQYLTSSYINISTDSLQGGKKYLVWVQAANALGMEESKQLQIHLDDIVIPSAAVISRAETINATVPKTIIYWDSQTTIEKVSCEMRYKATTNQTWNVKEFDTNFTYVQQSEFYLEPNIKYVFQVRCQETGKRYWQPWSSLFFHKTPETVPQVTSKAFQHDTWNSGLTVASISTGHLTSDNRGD
Experiment: competition ELISA against IL-23
// units = ratio; emit number, no label

Use the examples below as a reference point.
INSERT INTO results (binder, unit_abbrev, result_number) VALUES
  ('105-08-1A7 ATRIMER (designed binder, Homotrimer of the given chain (ATRIMER complex).) EPPTQKPKKIVNAKKDVVNTKMFEELKSRLDTLAQEVALLKEQQALQTVCLKGTKVHMKCFLAFTQTKTFHEASEDCISRGGTLSTPQTGSENDALYEYLRQSVGNEAEIWLGLNGSVRTNTWVDMTGARIAYKNWETEITAQPDGGFGYFGENCAVLSGAANGKWFDKRCRDQLPYICQFGIV', 'ratio', 2.9),
  ('105-08-2C11 ATRIMER (designed binder) EPPTQKPKKIVNAKKDVVNTKMFEELKSRLDTLAQEVALLKEQQALQTVCLKGTKVHMKCFLAFTQTKTFHEASEDCISRGGTLSTPQTGSENDALYEYLRQSVGNEAEIWLGLNGSLKTQTWVDMTGARIAYKNWETEITAQPDGGWGYFGENCAVLSGAANGKWFDKRCRDQLPYICQFGIV', 'ratio', 9.1);

The binder 105-78-2D1 ATRIMER (designed binder, not shown: C-terminal tag: Myc/His6 (pANA4) or HA-StrepII (pANA10); A Ser left at the ompA junction may also sit at the N-terminus) EPPTQKPKKIVNAKKDVVNTKMFEELKSRLDTLAQEVALLKEQQALQTVCLKGTKVHMKCFLAFTQTKTFHEASEDCISRGGTLSTPQTGSENDALYEYLRQSVGNEAEIWLGLNGSLRTHTWVDMTGARIAYKNWETEITAQPDGGFGVFGENCAVLSGAANGKWFDKRCRDQLPYICQFGIV showed Ratio IC50 to 056-53.H4E IC50 equal to 1.3
